Biological target: human notum pectinacetyltransferase (Homo sapiens)
Construct: made in house; unpurified conditioned medium used
Sequence (Q6P988 20-496): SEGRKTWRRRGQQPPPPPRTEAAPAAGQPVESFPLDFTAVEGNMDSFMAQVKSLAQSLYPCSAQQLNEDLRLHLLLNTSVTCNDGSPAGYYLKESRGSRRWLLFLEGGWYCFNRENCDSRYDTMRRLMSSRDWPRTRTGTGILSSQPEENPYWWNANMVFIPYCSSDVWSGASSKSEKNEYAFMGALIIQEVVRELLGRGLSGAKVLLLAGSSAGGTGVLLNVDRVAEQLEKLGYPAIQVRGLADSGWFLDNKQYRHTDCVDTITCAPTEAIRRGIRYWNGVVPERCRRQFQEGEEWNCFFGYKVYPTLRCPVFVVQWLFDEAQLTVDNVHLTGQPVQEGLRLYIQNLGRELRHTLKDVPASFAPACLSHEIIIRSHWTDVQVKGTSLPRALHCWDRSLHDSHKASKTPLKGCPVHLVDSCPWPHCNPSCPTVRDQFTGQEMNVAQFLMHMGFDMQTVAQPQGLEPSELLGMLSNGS
Assay: Binding assay (OPTS esterase substrate, fluorimetric)
Type: biochemical
Conditions: class symbols
pIC50: −log10 of the molar value.
Recorded metric: pIC50

Completed entries (count: 4):
>  <Chemical structure>
CC1(C)Oc2c(F)cc(F)cc2-c2sc(C(=O)O)cc21

>  <pIC50>
> 6.00

$$$$
>  <Chemical structure>
CN(C)C(=O)c1cc2c(s1)-c1ccccc1CC2

>  <pIC50>
> 6.00

$$$$
>  <Chemical structure>
NC(=O)c1cc2c(s1)-c1ccc(Cl)c(F)c1SC2

>  <pIC50>
> 7.30

$$$$
>  <Chemical structure>
O=C(O)c1cc2c(s1)-c1cc(Cl)ccc1SC2

>  <pIC50>
> 5.70

$$$$

**Q:** Returns the measured pIC50 for the input molecule. Input: O=C(O)c1cc2c(s1)-c1ccsc1CC2
**A:** > 7.30
